- Tested on: morningglory (Ipomoea coccinea)
- assayOverview: Test B pre-/postemergence plant response
- Type: in vivo
- runConditions: Preemergence, 62 g ai/ha; scale 0 to 100
measure: Plant response rating, Morningglory
Returns: the value as a bare number; no unit string appended.

[[record]]
querysmiles = "Cc1cc(-c2ccc(C(F)(F)F)cc2)nn1-c1c(O)c(C(C)C)nn(C)c1=O"
recordedmeasurement = 0


Asked: GET /values?readout=Plant response rating, Morningglory&item= "Cc1ccc(-c2ccc(Cl)cc2)cc1-c1c(O)cnn(C)c1=O"
Given back: 0

Asked: GET /values?readout=Plant response rating, Morningglory&item= "CCc1cc(-c2ccc(Cl)cc2)nn1-c1c(O)cnn(C)c1=O"
Given back: 0

Asked: GET /values?readout=Plant response rating, Morningglory&item= "Cc1cc(-c2ccc(Cl)cc2)nn1-c1c(OC(=O)c2cccs2)cnn(C)c1=O"
Given back: 100

Asked: GET /values?readout=Plant response rating, Morningglory&item= "CCOC(=O)Oc1cnn(C)c(=O)c1-n1nc(-c2ccc(Cl)cc2)cc1C"
Given back: 0

###

Measured Plant response rating, Oat, Wild of individual entries
- System: wild oat (Avena fatua)
- assayOverview: Test B pre-/postemergence plant response
- Assay type: in vivo
- runConditions: Preemergence, 62 g ai/ha; scale 0 to 100
- Excerpt: […] Plant species in the flooded paddy test consisted of rice (Oryza sativa), umbrella sedge (Cyperus difformis), ducksalad (Heteranthera limosa) and barnyardgrass (Echinochloa crus-galli) grown to the 2-leaf stage for testing. […] Treated plants and controls were maintained in a greenhouse for 13 to 15 days, after which time all species were compared to controls and visually evaluated. […]
Returns: the value as a bare number; no unit string appended.

[[record]]
querysmiles = "Cc1cc(-c2ccc(Cl)cc2)nn1-c1c(OS(=O)(=O)c2cccc3ccccc23)cnn(C)c1=O"
recordedmeasurement = 70

[[record]]
querysmiles = "CCc1cc(-c2ccc(Cl)cc2)nn1-c1c(O)cnn(C)c1=O"
recordedmeasurement = 95

[[record]]
querysmiles = "CCOC(=O)Oc1cnn(C)c(=O)c1-n1nc(-c2ccc(Cl)cc2)cc1C"
recordedmeasurement = 85

[[record]]
querysmiles = "Cc1cc(-c2ccc(Cl)cc2)nn1-c1c(OC(=O)Oc2ccccc2)cnn(C)c1=O"
recordedmeasurement = 95

[[record]]
querysmiles = "Cc1cc(-c2ccc(Br)cc2)nn1-c1c(OC(=O)C2CC2)cnn(C)c1=O"
recordedmeasurement = 70

[[record]]
querysmiles = "Cc1cc(-c2ccc(Cl)cc2)nn1-c1c(OC(=O)c2cccc(Cl)c2)cnn(C)c1=O"
recordedmeasurement = 80


Asked: GET /values?readout=Plant response rating, Oat, Wild&item= "Cc1cc(-c2ccc(Cl)cc2)nn1-c1c(OS(=O)(=O)c2ccccc2)cnn(C)c1=O"
Given back: 95

Asked: GET /values?readout=Plant response rating, Oat, Wild&item= "Cc1cc(-c2ccc(Cl)cc2)nn1-c1c(OC(=O)CC(C)C)cnn(C)c1=O"
Given back: 95

###

- Test system: canarygrass (Phalaris minor)
- assayOverview: Test C pre-/postemergence plant response
- Type: in vivo
- runConditions: Preemergence, 31 g ai/ha; scale 0 to 100 (0 no effect, 100 complete control)
hey, just use Criterion met if measured Plant response rating, Canarygrass is less than 80, otherwise Criterion not met

[[record]]
querysmiles = "CCc1cc(-c2ccc(Cl)cc2)nn1-c1c(O)cnn(C)c1=O"
answerlabel = "Criterion not met"

[[record]]
querysmiles = "Cc1cc(-c2ccc(Cl)cc2)nn1-c1c(OS(=O)(=O)c2cccc3ccccc23)cnn(C)c1=O"
answerlabel = "Criterion met"

[[record]]
querysmiles = "CCOC(=O)Oc1cnn(C)c(=O)c1-n1nc(-c2ccc(Cl)cc2)cc1C"
answerlabel = "Criterion not met"


We now examine a further compound.
Asked: Confirm or reject: Plant response rating, Canarygrass of "CCCc1cc(-c2ccc(Cl)cc2)nn1-c1c(O)cnn(C)c1=O" lies strictly below 80
Given back: Criterion met
